- PROCEDURE TEXT: Cytotoxicity against human melanoma cells after 48 hrs by coulter counting
- Type: functional
- CONDITION INFO: Melanoma cell
MEASURED ATTRIBUTE: TGI

What value of TGI has been recorded for this entry: CCN1CC2=C(N=C3SC=C(C)N3C2c2ccc(OC)c(OC)c2)/C(=C/c2ccc(OC)c(OC)c2)C1 (centres undefined)
10.8 µM

Please do the same for CCN1CC2=C(N=C3SC=CN3C2c2ccc(OC)c(OC)c2)/C(=C/c2ccc(OC)c(OC)c2)C1 (centres undefined) as well.
10.1 µM

Please do the same for O=c1[nH]cc(F)c(=O)[nH]1 [FLUOROURACIL] as well.
> 100 µM

Please do the same for CCN1CC2=C(N=C3SC=CN3C2c2ccc(OC)cc2)/C(=C/c2ccc(OC)cc2)C1 (centres undefined) as well.
10.9 µM
